# protocolDetails: STM_H9_OrnithineISnorm_perc: Stemina devTOX quickPredict H9 human embryonic stem cell (hESC)-based Assay for Ornithine (ORN) Metabolite Biomarker, Normalized (AID 2283712);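 also: ornithine released into spent medium during last day measured by mass spectrometry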
Active and inactive are the calls of the source. The calls were made as follows: active = hit-call score of the fitted dose curve at least 0.9, where 1 is the maximum; inactive = score below 0.9.
Classes used: active, inactive

INSERT INTO results (compound, answerlabel) VALUES
  ('CC(C)=CCCC(C)=CC=O', 'active'),
  ('CCN(C(=O)c1cc(C)cc(OC[C@H](C)Nc2ccncc2)c1)C(C)C', 'inactive'),
  ('Cn1cnc([N+](=O)[O-])c1Sc1ncnc2nc[nH]c12', 'active'),
  ('Nc1nc2ncc(CNc3ccc(C(=O)N[C@@H](CCC(=O)O)C(=O)O)cc3)nc2c(=O)[nH]1', 'inactive'),
  ('O=c1[nH]c2ccc(S(=O)CCN3CCC(Cc4ccc(F)cc4)CC3)cc2o1 (stereo unspecified)', 'inactive'),
  ('O=P(OC(CCl)CCl)(OC(CCl)CCl)OC(CCl)CCl', 'inactive'),
  ('NC(=O)NO', 'active'),
  ('CC(C)CC(C)(O)C#CC(C)(O)CC(C)C (stereo unspecified)', 'active'),
  ('Fc1ccccc1[C@@H](F)COC1CCC(Nc2ncnc3[nH]ncc23)CC1 (stereo partly specified)', 'inactive'),
  ('Cn1c(=O)c2c(ncn2C)n(C)c1=O', 'inactive'),
  ('CCCCCCCCCCCCc1ccccc1', 'inactive'),
  ('Cn1c(=O)cc(Oc2ccc(F)cc2F)c2cnc(NCC(C)(C)O)nc21', 'inactive'),
  ('CC(C)CCO', 'inactive'),
  ('CCC(C)(C)C(=O)O[C@H]1C[C@@H](C)C=C2C=C[C@H](C)[C@H](CC[C@@H]3C[C@@H](O)CC(=O)O3)[C@H]21', 'active'),
  ('COc1ccc2sc(C(=O)Nc3nnn[nH]3)c(OC(C)C)c2c1', 'active'),
  ('On1ccccc1=S', 'active');

====

# protocolDetails: CCTE_Shafer_MEA_acute_per_network_burst_spike_number_mean: CCTE's Neural Acute Assay for Average Number of Spikes in a Network Burst, Shafer Lab (AID 2284019)
Active and inactive are the calls of the source. Rule for the calls: active = hit-call score of the fitted dose curve at least 0.9, where 1 is the maximum; inactive = score below 0.9.
Labels: active, inactive

INSERT INTO measurements (compound, answerlabel) VALUES
  ('CCOC(=O)c1ccc(C2CCC(NC[C@H](O)COc3ccc(O)c(NS(C)(=O)=O)c3)CC2)cc1 (some centres undefined)', 'inactive'),
  ('CC[C@H]1OC(=O)[C@H](C)[C@@H](O[C@H]2C[C@@](C)(OC)[C@@H](O)[C@H](C)O2)[C@H](C)[C@@H](O[C@@H]2O[C@H](C)C[C@H](N(C)C)[C@H]2O)[C@](C)(O)C[C@@H](C)C(=O)[C@H](C)[C@@H](O)[C@]1(C)O', 'inactive'),
  ('CCCCCCc1ccc(O)cc1O', 'active'),
  ('CC[C@H]1CC[C@H](NCc2cc3c(cc2OC)[C@H]2C[C@H]2C(=O)N3C)[C@H](c2ccccc2)N1', 'inactive');

====

# Read-out: Bcl-2 (BAD) gene, BAD (gene 572)
# protocolDetails: LTEA_HepaRG_BAD: Life Technologies and Expression Analysis (LTEA) Assay for Bcl-2 (BAD) gene using HepaRG (AID 2283469)
# conditionParameters: mRNA level, 48 h; actives raise or lower the signal
Calls of active or inactive are those of the source. How the source made its calls: active means hit-call score of the fitted dose curve at least 0.9, where 1 is the maximum; inactive means score below 0.9.
propertyMeasured: outcome

INSERT INTO assay_data (compound, reported) VALUES
  ('COC(=O)CC(=O)OC', 'inactive'),
  ('O=C(NS(=O)(=O)/C=C/c1ccccc1)c1ccc(F)cc1Cl', 'inactive'),
  ('C=CC(=C)CCC=C(C)C', 'inactive'),
  ('CCNc1ccccc1', 'inactive'),
  ('CCCCCCc1ccc(O)cc1O', 'inactive'),
  ('CCOC(=O)COc1ccc2c(c1)CC(NCC(O)c1cccc(Cl)c1)CC2 (stereo not given)', 'inactive'),
  ('O=c1[nH]c2ccc(S(=O)CCN3CCC(Cc4ccc(F)cc4)CC3)cc2o1 (stereo not given)', 'inactive'),
  ('CC[C@H]1OC(=O)[C@H](C)[C@@H](O[C@H]2C[C@@](C)(OC)[C@@H](O)[C@H](C)O2)[C@H](C)[C@@H](O[C@@H]2O[C@H](C)C[C@H](N(C)C)[C@H]2O)[C@](C)(O)C[C@@H](C)C(=O)[C@H](C)[C@@H](O)[C@]1(C)O', 'inactive'),
  ('O=C(CCCCCCCCc1cccnc1)N1CCC(C=C(c2ccccc2)c2ccccc2)CC1', 'inactive'),
  ('O=c1n(CC2CO2)c(=O)n(CC2CO2)c(=O)n1CC1CO1 (stereo not given)', 'inactive');

====

# Read-out: Paternally Expressed 10 (PEG10), PEG10 (gene 23089)
# protocolDetails: LTEA_HepaRG_PEG10: Life Technologies and Expression Analysis (LTEA) Assay for Paternally Expressed 10 (PEG10) using HepaRG (AID 2283520)
# conditionParameters: mRNA level, 48 h; actives raise or lower the signal
Activity calls are given as the source filed them. The calls were made as follows: active = hit-call score of the fitted dose curve at least 0.9, where 1 is the maximum; inactive = score below 0.9.
Outcomes: 1 (yes) = active, 0 (no) = inactive

INSERT INTO results (molecule, answerlabel) VALUES
  ('CC[C@H]1OC(=O)[C@H](C)[C@@H](O[C@H]2C[C@@](C)(OC)[C@@H](O)[C@H](C)O2)[C@H](C)[C@@H](O[C@@H]2O[C@H](C)C[C@H](N(C)C)[C@H]2O)[C@](C)(O)C[C@@H](C)C(=O)[C@H](C)[C@@H](O)[C@]1(C)O', '0 (no)'),
  ('CC(C)CCCCCCCOC(=O)CCCCC(=O)OCCCCCCCC(C)C', '0 (no)'),
  ('O=C(O)c1cccc(N(Cc2cccnc2)c2ccc(OC(F)F)c(OC(F)F)c2)c1', '1 (yes)'),
  ('COCCOCCOCCOC', '0 (no)'),
  ('CCCCC(CC)COC(=O)CCCCCCCCC(=O)OCC(CC)CCCC (stereo not drawn)', '0 (no)'),
  ('O=C1CCCCCN1', '0 (no)'),
  ('Nc1nc2ncc(CNc3ccc(C(=O)N[C@@H](CCC(=O)O)C(=O)O)cc3)nc2c(=O)[nH]1', '0 (no)'),
  ('CC(=O)OC[C@H]1O[C@@](COC(C)=O)(O[C@H]2O[C@H](COC(C)=O)[C@@H](OC(C)=O)[C@H](OC(C)=O)[C@H]2OC(C)=O)[C@@H](OC(C)=O)[C@@H]1OC(C)=O', '0 (no)');

====

# Read-out: Interferon-gamma inducible Protein 10 (IP10), CXCL10 (gene 3627)
# protocolDetails: BSK_KF3CT_IP10: BioMAP Diversity Plus: KF3CT Assay for Interferon-gamma inducible Protein 10 (IP10) Biomarker Activity (AID 2283068)
# conditionParameters: primary human keratinocytes with fibroblasts; actives raise or lower the signal
The source made the active and inactive calls. How the source made its calls: active means hit-call score of the fitted dose curve at least 0.9, where 1 is the maximum; inactive means score below 0.9.
Outcomes: active, inactive

INSERT INTO results (compound, answerlabel) VALUES
  ('O=C(OC[C@H]1O[C@@H](OC(=O)c2cc(O)c(O)c(OC(=O)c3cc(O)c(O)c(O)c3)c2)[C@H](OC(=O)c2cc(O)c(O)c(OC(=O)c3cc(O)c(O)c(O)c3)c2)[C@@H](OC(=O)c2cc(O)c(O)c(OC(=O)c3cc(O)c(O)c(O)c3)c2)[C@@H]1OC(=O)c1cc(O)c(O)c(OC(=O)c2cc(O)c(O)c(O)c2)c1)c1cc(O)c(O)c(OC(=O)c2cc(O)c(O)c(O)c2)c1', 'active'),
  ('CN(C)c1ccc(Cc2ccc(N(C)C)cc2)cc1', 'inactive'),
  ('COc1cccc(-c2ccc(/C=C\CN3CCCCCC3)cc2Cl)c1', 'active'),
  ('COCCOCCOCCOC', 'inactive'),
  ('CCOC(=O)COc1ccc2c(c1)CC(NCC(O)c1cccc(Cl)c1)CC2 (stereo unspecified)', 'inactive'),
  ('O=C(O)c1cccc(N(Cc2cccnc2)c2ccc(OC(F)F)c(OC(F)F)c2)c1', 'inactive'),
  ('CC(C)CC(C)(O)C#CC(C)(O)CC(C)C (stereo unspecified)', 'inactive'),
  ('Cc1ccc(S(=O)(=O)O)cc1C', 'inactive'),
  ('CNS(=O)(=O)c1cc(C(=O)N2CCC(CCN3C4CCC3CC(n3c(C)nc5ccccc53)C4)(c3cccc(F)c3)CC2)c(Cl)cc1F (stereo unspecified)', 'inactive'),
  ('CCOCCO', 'inactive'),
  ('CC[C@H]1OC(=O)[C@H](C)[C@@H](O[C@H]2C[C@@](C)(OC)[C@@H](O)[C@H](C)O2)[C@H](C)[C@@H](O[C@@H]2O[C@H](C)C[C@H](N(C)C)[C@H]2O)[C@](C)(O)C[C@@H](C)C(=O)[C@H](C)[C@@H](O)[C@]1(C)O', 'inactive'),
  ('CCCCC(CC)COC(=O)CCCCCCCCC(=O)OCC(CC)CCCC (stereo unspecified)', 'inactive'),
  ('O=P(OC(CCl)CCl)(OC(CCl)CCl)OC(CCl)CCl', 'inactive'),
  ('Cc1c(-c2cccnc2)c2ccccc2n1CCCCC(=O)O', 'inactive'),
  ('Clc1nc(Cl)c(Cl)c(Cl)c1Cl', 'inactive'),
  ('CC(=O)OCCC(C)C', 'inactive'),
  ('C=CCCCCCCCCC(=O)O', 'inactive'),
  ('O=c1[nH]c2ccc(S(=O)CCN3CCC(Cc4ccc(F)cc4)CC3)cc2o1 (stereo unspecified)', 'inactive'),
  ('CC1=CC(=O)CC(C)(C)C1', 'inactive'),
  ('O=C(O)c1cc(N=Nc2ccc(S(=O)(=O)Nc3ccccn3)cc2)ccc1O', 'inactive'),
  ('CC(O)CN(CCN(CC(C)O)CC(C)O)CC(C)O (stereo unspecified)', 'inactive');
